B1: TPR 5TU (parent)
chain: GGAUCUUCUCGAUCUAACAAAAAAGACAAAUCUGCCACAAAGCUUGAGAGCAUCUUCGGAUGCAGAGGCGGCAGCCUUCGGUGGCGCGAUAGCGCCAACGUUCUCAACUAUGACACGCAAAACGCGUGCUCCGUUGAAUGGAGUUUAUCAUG

Variants of: B1
assay.explanation: polymerase ribozyme fitness, log enrichment relative to wild type (log ratio); higher = more active; in vitro selection for triplet polymerase activity
Fewer inactive variants are shown than the library holds.
Catalogue of polymerase ribozyme fitness (log ratio) values
outcome.measure: polymerase ribozyme fitness (log ratio)

mutation_label="A41C A91C A106U U148C" qualifier_operator=≤ reported_value=-4.2
mutation_label="C14U G50U" qualifier_operator== reported_value=-1.15
mutation_label="A19G A47G G48A" qualifier_operator== reported_value=-3.23
mutation_label="A26C C27U" qualifier_operator== reported_value=-2.8
mutation_label="U4G C114U" qualifier_operator== reported_value=-2.01
mutation_label="G50A C95U" qualifier_operator== reported_value=-2.44
mutation_label="G86C U101A U104G A107C G112C" qualifier_operator=≤ reported_value=-4.2
mutation_label="C95U C105G" qualifier_operator== reported_value=-0.337
mutation_label="C54G C96U" qualifier_operator== reported_value=-1.33
mutation_label="C54A G58C" qualifier_operator== reported_value=-1.45
mutation_label="A91G G126A G141A" qualifier_operator== reported_value=-3.67
